molecular target: KRAS Q61H (Homo sapiens (Human), UniProt P01116+P62937, Q61H); experiment: Ras-Raf disruption/FRET/MOA assay (BRAF RBD, Cyclophilin A); assay type: biochemical
Sequence (P01116 other isoform, or with tags, fused parts or gaps Q61H): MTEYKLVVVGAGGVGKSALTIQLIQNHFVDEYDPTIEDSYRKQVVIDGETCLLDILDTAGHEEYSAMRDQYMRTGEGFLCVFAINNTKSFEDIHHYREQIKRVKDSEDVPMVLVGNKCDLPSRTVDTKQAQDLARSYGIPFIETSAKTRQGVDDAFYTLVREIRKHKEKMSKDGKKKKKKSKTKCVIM
Sequence (P62937 whole entry): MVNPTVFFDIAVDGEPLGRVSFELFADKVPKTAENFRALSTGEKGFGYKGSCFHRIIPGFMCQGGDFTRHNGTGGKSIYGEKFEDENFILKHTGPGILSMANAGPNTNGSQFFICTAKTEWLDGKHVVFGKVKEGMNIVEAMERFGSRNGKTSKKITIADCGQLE
pIC50: −log10 of the molar value.
Item-by-item account of pIC50

>>> measurement("CCn1c(-c2cccnc2[C@H](C)OC)c2c3cc(ccc31)-c1csc(n1)C[C@H](NC(=O)[C@H](C(C)C)N(C)C(=O)N1CC3(CCCN(C)C3=O)C1)C(=O)N1CCC[C@H](N1)C(=O)OCC(C)(C)C2 [Compound A453]")
"6.00 to 7.00"

Please look at the following compound next.
// returns pIC50 for CCn1c(-c2cccnc2[C@H](C)OC)c2c3cc(ccc31)-c1csc(n1)C[C@H](NC(=O)[C@H](C(C)C)N(C)C(=O)N1CCO[C@H](c3ccccc3)C1)C(=O)N1CCC[C@H](N1)C(=O)OCC(C)(C)C2 [Compound A582] with KRAS Q61H (Homo sapiens (Human), UniProt P01116+P62937, Q61H); value = 7.00 to 8.00

* * *

Item-by-item account of IC50
target: KRAS WT (Homo sapiens (Human), UniProt P01116+P62937); test: Ras-Raf disruption/FRET/MOA assay (BRAF RBD, Cyclophilin A); format: biochemical; conditions: read-out: KRAS WT FRET data IC50
Sequence (P01116 other isoform, or with tags, fused parts or gaps): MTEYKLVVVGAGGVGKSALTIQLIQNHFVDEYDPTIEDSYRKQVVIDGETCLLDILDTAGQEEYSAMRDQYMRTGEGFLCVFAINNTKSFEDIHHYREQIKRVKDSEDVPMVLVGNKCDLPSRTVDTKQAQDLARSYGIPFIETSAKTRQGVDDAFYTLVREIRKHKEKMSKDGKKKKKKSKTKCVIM
Sequence (P62937 whole entry): as the sequence (P62937 whole entry) above

Take a look at these entries with their results.
>>> measurement("CCn1c(-c2cccnc2[C@H](C)OC)c2c3cc(ccc31)-c1cc(cc3nc[nH]c13)C[C@H](NC(=O)[C@H](C(C)C)N(C)C(C)=O)C(=O)N1CCC[C@H](N1)C(=O)OCC(C)(C)C2")
"> 10000 nM"
>>> measurement("CO[C@@H](C)c1ncccc1-c1c2c3cc(ccc3n1CC(F)(F)F)-c1csc(n1)C[C@H](NC(=O)[C@H](C(C)C)N(C)C(=O)N1CC(N(C)C)C1)C(=O)N1CCC[C@H](N1)C(=O)OCC(C)(C)C2")
"100 to 1000 nM"
>>> measurement("CCn1c(-c2cccnc2[C@H](C)OC)c2c3cc(ccc31)-c1cc(O)cc(c1)C[C@H](NC(=O)[C@H](C(C)C)N(C)C(=O)[C@H]1CCN(C(=O)[C@@]3(C)CCCN3C)C1)C(=O)N1CCC[C@H](N1)C(=O)OCC(C)(C)C2")
"10 to 100 nM"

// returns IC50 for CCn1c(-c2cccnc2[C@H](C)OC)c2c3cc(ccc31)-c1cc(O)cc(c1)C[C@H](NC(=O)[C@H](C(C)C)N(C)C(=O)[C@@H]1OCC[C@H]1c1ccccc1)C(=O)N1CCC[C@H](N1)C(=O)OCC(C)(C)C2 with KRAS WT (Homo sapiens (Human), UniProt P01116+P62937); value = 10 to 100 nM

* * *

target: KRAS G13D (Homo sapiens (Human), UniProt P01116+P62937, G13D); assay: Ras-Raf disruption/FRET/MOA assay, KRAS G13D; assay type: biochemical; settings: read-out: KRAS G13D FRET IC50
Sequence (P01116 other isoform, or with tags, fused parts or gaps G13D, one chain of several): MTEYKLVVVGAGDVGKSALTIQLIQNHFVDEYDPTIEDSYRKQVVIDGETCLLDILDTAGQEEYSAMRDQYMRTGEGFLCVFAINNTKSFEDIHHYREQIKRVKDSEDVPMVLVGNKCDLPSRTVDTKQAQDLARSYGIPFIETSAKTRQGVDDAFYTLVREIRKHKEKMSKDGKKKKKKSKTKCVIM
Item-by-item account of IC50

>>> measurement("CCn1c(-c2cccnc2[C@H](C)OC)c2c3cc(ccc31)-c1cc(O)cc(c1)C[C@H](NC(=O)[C@H](C(C)C)N1CC[C@@]3(CCC(C(=O)[C@@H]4N[C@@H]4C4CC4)C3)C1=O)C(=O)N1CCC[C@H](N1)C(=O)OCC(C)(C)C2 (stereo partly drawn) [Example 128]")
"100 to 1000 nM"

# IC50 (molecule: CCn1c(-c2cnccc2COC)c2c3cc(ccc31)-c1cc(O)cc(c1)C[C@H](NC(=O)[C@H](C(C)C)N(C)C(=O)C1CCN(C(=O)[C@@H]3CN3)CC1)C(=O)N1CCC[C@H](N1)C(=O)OCC(C)(C)C2 [Example 4] ) is 100 to 1000 nM

# IC50 (molecule: CCn1c(-c2cnccc2COC)c2c3cc(ccc31)-c1cc(O)cc(c1)C[C@H](NC(=O)[C@H](C(C)C)N(C)C(=O)CN1C(=O)[C@H]3N[C@H]3C1=O)C(=O)N1CCC[C@H](N1)C(=O)OCC(C)(C)C2 [Example 98] ) is 1000 to 10000 nM

# IC50 (molecule: CCn1c(-c2cnccc2COC)c2c3cc(ccc31)-c1cccc(c1)C[C@H](NC(=O)[C@H](C(C)C)N(C)C(=O)CCN=C=Nc1ccc(N(C)C)cc1)C(=O)N1CCC[C@H](N1)C(=O)OCC(C)(C)C2 [Example 66] ) is 1000 to 10000 nM
